Attribution: patent US6011041A

experiment: P388 tumour antitumor activity and maximum tolerated dose in BDF1 mice (FIGS. 6, 7); assay type: in vivo; conditions: mouse, in vivo, iv; BDF1 mice bearing P388 tumors, single i.v. injection
observable: MTD (mg/kg)
Quick reminder: number only, in mg/kg, skip the unit.

Prompt: Specify reported MTD for the compound shown: CCC1=CC2CN(CCc3c([nH]c4ccccc34)C(C(=O)OC)(c3cc4c(cc3OC)N(C)C3C(O)(C(=O)OC)C(OC(C)=O)C5(CC)C=CCN6CCC43C65)C2)C1 (stereo not shown) [AHVB, 3',4'-anhydrovinblastine]
Completion: 40

====

system: MCF7 human breast carcinoma; experiment: MTT dose response cytotoxicity, MCF7 (Table 1); format: cell-based; details: MCF7, 72 h, read-out: DRUG IC50
pIC50: −log10 of the molar value.
observable: pIC50

Prompt: Answer with reported pIC50 of CCC1=CC2CN(CCc3c([nH]c4ccccc34)C(C(=O)OC)(c3cc4c(cc3OC)N(C)C3C(O)(C(=O)OC)C(OC(C)=O)C5(CC)C=CCN6CCC43C65)C2)C1 (stereo not shown) [AHVB, 3',4'-anhydrovinblastine]
Completion: < 5.60

====

assay: acute (14 day) single dose toxicity in healthy male Nb rats (Table 2); format: in vivo, rat; settings: rat, in vivo, ip; male Nb rats, single i.p. injection; read-out: subacutely toxic dosage (highest dose which allowed survival of all animals in a group, 3 out of 3)
Structures can show the parent of a compound that is named as a salt.
observable: MTD at 336 h (mg/kg)
Field format: number, assumed mg/kg, no unit text.

Take a look at these entries with their results.
CCC1=C[C@@H]2CN(C1)Cc1c([nH]c3ccccc13)[C@@](C(=O)OC)(c1cc3c(cc1OC)N(C)[C@H]1[C@@](O)(C(=O)OC)[C@H](OC(C)=O)[C@]4(CC)C=CCN5CC[C@]31[C@@H]54)C2: 2
CC[C@]1(O)C[C@H]2CN(CCc3c([nH]c4ccccc34)[C@@](C(=O)OC)(c3cc4c(cc3OC)N(C=O)[C@H]3[C@@](O)(C(=O)OC)[C@H](OC(C)=O)[C@]5(CC)C=CCN6CC[C@]43[C@@H]65)C2)C1 [vincristine, Sulfate of 22-oxovincaleukoblastine]: 0.7

Turning to the following compound.
Prompt: # return recorded MTD at 336 h for entry CCC1=CC2CN(CCc3c([nH]c4ccccc34)C(C(=O)OC)(c3cc4c(cc3OC)N(C)C3C(O)(C(=O)OC)C(OC(C)=O)C5(CC)C=CCN6CCC43C65)C2)C1 (stereo not drawn) [AHVB, 3',4'-anhydrovinblastine]
Completion: 3

====

tested on: H460 human non-small cell lung carcinoma; experiment: MTT dose response cytotoxicity, H460 (Table 1); assay type: cell-based; details: NCI-H460, 168 h, read-out: DRUG IC50
observable: IC50 (nM)
Provide the reading as a plain figure in nM.

Prompt: Return reported IC50. Input molecule: CCC1=CC2CN(CCc3c([nH]c4ccccc34)C(C(=O)OC)(c3cc4c(cc3OC)N(C)C3C(O)(C(=O)OC)C(OC(C)=O)C5(CC)C=CCN6CCC43C65)C2)C1 (stereo not shown) [AHVB, 3',4'-anhydrovinblastine]
Completion: 5
